- Assay target: Inadl_6, Q8NI35
- Sequence (Q8NI35 1058-1167): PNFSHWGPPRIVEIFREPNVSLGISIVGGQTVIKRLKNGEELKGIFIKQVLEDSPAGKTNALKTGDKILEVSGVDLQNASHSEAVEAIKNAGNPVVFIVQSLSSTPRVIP
- Measurement description: holdup assay
- Design: key: below the threshold = too weak to quantify, mostly under pKd 3.1 to 4
- Condition details: plain residues with an end cap or a label only (N-terminal biotin on a linker: ado-ado)
Property: pKd; scope: individual binders
Note: the reply should be a number with no unit written.

The cases that follow already have their pKd on record.
ATKDKKITTV [EXOC4, Q96A65]    3.53
SGDGKTSVWI [GJC1, P36383]    3.69
GDSSRKEYFI [GYPC, P04921]    3.54
GTMFLRETSL [GUCY1A2, P33402]    4.84
IGHEDLETAV [DGKI, O75912]    4.1

Let us examine a further case.
Task item: What value of pKd has been recorded for this entry: PLPPEEESWV [GAS2L2, Q8NHY3]
Reply: 5.43
